target: streptavidin-phycoerythrin (SA-PE) (UniProt P22629); experiment: bead-based flow cytometry; conditions: PBSMCT selection buffer (PBS with Mg2+, CaCl2, 0.01% Tween 20; full composition not in material), pH 7.4 or pH 5.2 (HCl); bead assays at RT, MST at 25 C with …
Sequence (P22629 whole entry): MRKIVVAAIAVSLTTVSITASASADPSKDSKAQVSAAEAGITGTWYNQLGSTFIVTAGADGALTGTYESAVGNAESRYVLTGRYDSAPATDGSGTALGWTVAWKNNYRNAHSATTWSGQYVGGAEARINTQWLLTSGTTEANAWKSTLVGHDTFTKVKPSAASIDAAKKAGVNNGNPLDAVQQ
Value type: Kd (nM)
Use nM as the unit, but write only the number.

QUERY: Please give the measured Kd for this sequence: ATTGACCGCTGTGTGACGCAACACTCAAT [SBA29]
RESULT: 3.5

###

molecular target: streptavidin-phycoerythrin (SA-PE); experiment: bead-based flow cytometry; settings: PBSMCT selection buffer (PBS with Mg2+, CaCl2, 0.01% Tween 20; full composition not in material), pH 7.4 or pH 5.2 (HCl); bead assays at RT, MST at 25 C with …
Measured Kd values are reported for all entries that follow.
A number alone suffices; assume nM.

Example results:
Monomer sequence	Kd (nM)
ATACCAGCTTATTCAATTATTGACCGCTGTGTGACGCAACACTCAATACCTTCTCAACGTTCTCTGTAGATAGTAAGTGCAATCT [S3]	24.2
ATACCAGCTTATTCAATTATTGACCGCTGTGTGACGCAACACTCAATTCTTGGATCTCGCTGCACACAGATAGTAAGTGCAATCT [S8]	112

Let us examine a further case.
QUERY: Tell me reported Kd for ATTGACCGCTGTGTGACGCAACACTCAAT [SBA29] , tested with streptavidin-phycoerythrin (SA-PE).
RESULT: 10.4
